System: Plasmodium falciparum
Assay: Antiplasmodial activity against Plasmodium falciparum 3D7 incubated for 36 to 42 hrs by Giemsa staining method
Type: functional, organism-based
Endpoint Label: IC50

# Smiles, Target, Reported Value
data = [
    ("Cc1ccccc1-c1c(O)c2ccccc2n(O)c1=O", "Plasmodium falciparum", "Not Active"),
    ("O=c1[nH]c2ccccc2cc1-c1cccc2ccccc12", "Plasmodium falciparum", "Not Active"),
    ("O=c1c(-c2ccccc2)c(O)c2ccccc2n1O", "Plasmodium falciparum", "Not Active"),
    ("O=c1c(-c2ccccc2C(F)(F)F)c(O)c2ccccc2n1O", "Plasmodium falciparum", "Not Active"),
    ("O=c1c(-c2cccc3ccccc23)c(O)c2ccccc2n1O", "Plasmodium falciparum", "Not Active"),
    ("O=c1c(-c2ccc3ccccc3c2)c(O)c2ccccc2n1O", "Plasmodium falciparum", "Not Active"),
]

Turning now to a further record.
[in] Lab request: please report IC50 under test system Plasmodium falciparum for COc1ccccc1-c1c(O)c2ccccc2n(O)c1=O
[out] Not Active

###

System: Staphylococcus aureus
Assay: Antibacterial activity against Staphylococcus aureus ATCC 25923 incubated for 18 to 24 hrs followed by addition incubation for 18 to 24 hrs on MHA plates
Type: functional
Calls of active or inactive are those of the source. The rule behind the calls is not given here.
Endpoint Label: MBC

# Smiles, MBC
data = [
    ("O=c1c(-c2ccc3ccccc3c2)cc2ccccc2n1O", "3.6 mM"),
    ("Cc1ccccc1-c1cc2cc(O)ccc2n(O)c1=O", "3.8 mM"),
    ("COc1cc2cc(-c3cccc4ccccc34)c(=O)n(O)c2cc1OC", "inactive"),
    ("COc1ccc2c(c1)cc(-c1ccccc1C)c(=O)n2O", "3.6 mM"),
]

[in] Lab request: please report MBC under test system Staphylococcus aureus for COc1ccccc1-c1cc2ccccc2n(O)c1=O
[out] 3.8 mM

[in] Lab request: please report MBC under test system Staphylococcus aureus for O=c1c(-c2ccccc2)c(O)c2ccccc2n1O
[out] inactive

[in] Lab request: please report MBC under test system Staphylococcus aureus for O=c1c(-c2cccc3ccccc23)c(O)c2ccccc2n1O
[out] 1.7 mM

[in] Lab request: please report MBC under test system Staphylococcus aureus for Cc1ccccc1-c1cc2ccccc2n(O)c1=O
[out] 4.1 mM

[in] Lab request: please report MBC under test system Staphylococcus aureus for Cc1ccccc1-c1c(O)c2ccccc2n(O)c1=O
[out] inactive

[in] Lab request: please report MBC under test system Staphylococcus aureus for O=c1c(-c2cccc3ccccc23)cc2cc3c(cc2n1O)OCO3
[out] inactive

[in] Lab request: please report MBC under test system Staphylococcus aureus for COc1cc2cc(-c3ccccc3C)c(=O)n(O)c2cc1OC
[out] inactive

[in] Lab request: please report MBC under test system Staphylococcus aureus for O=c1c(-c2cccc3ccccc23)cc2c3c(ccc2n1O)OCO3
[out] 3.1 mM

###

Assay: Iron chelation activity assessed as drug level causing 50% iron chelation at 20 to 500 ug/ml using FeCl2 and ferrozine
Format: physicochemical
Conditions: read-out: Activity
Endpoint Label: EC50 (µM)
Just the number please, in µM, no unit attached.

These recorded examples may help you get a feel for the data.
# Smiles, EC50 (µM)
measured = [
    ("COc1ccc2c(c1)cc(-c1ccccc1C)c(=O)n2O", 280),
    ("O=c1c(-c2cccc3ccccc23)c(O)c2ccccc2n1O", 280),
    ("O=c1c(-c2cccc3ccccc23)cc2cc(F)ccc2n1O", 240),
]

[in] Returns the measured EC50 for the input molecule. Input: Cc1ccccc1-c1cc2c(F)cccc2n(O)c1=O
[out] 280

[in] Returns the measured EC50 for the input molecule. Input: O=c1c(-c2cccc3ccccc23)cc2c(F)cccc2n1O
[out] 240

[in] Returns the measured EC50 for the input molecule. Input: Cc1ccccc1-c1cc2cc(F)ccc2n(O)c1=O
[out] 290

[in] Returns the measured EC50 for the input molecule. Input: COc1ccc2c(c1)cc(-c1cccc3ccccc13)c(=O)n2O
[out] 250

###

System: Escherichia coli
Assay: Antibacterial activity against Escherichia coli ATCC 25922 up to 1024 ug/ml incubated for 18 to 24 hrs followed by addition incubation for 18 to 24 hrs on MHA plates
Assay type: functional, organism-based
Active and inactive are the calls of the source. No cut-off for these calls is given here.
Endpoint Label: Activity

# Smiles, Activity
measured = [
    ("O=c1c(-c2cccc3ccccc23)cc2cc(F)ccc2n1O", "inactive"),
    ("O=c1c(-c2ccc3ccccc3c2)c(O)c2ccccc2n1O", "inactive"),
    ("O=c1c(-c2cccc3ccccc23)cc2c3c(ccc2n1O)OCO3", "inactive"),
    ("O=c1c(-c2cccc3ccccc23)c(O)c2ccccc2n1O", "inactive"),
    ("Cc1ccccc1-c1cc2cc3c(cc2n(O)c1=O)OCO3", "inactive"),
]

[in] Returns the measured Activity for the input compound. Input: Cc1ccccc1-c1cc2ccccc2n(O)c1=O
[out] inactive

[in] Returns the measured Activity for the input compound. Input: COc1cc2cc(-c3cccc4ccccc34)c(=O)n(O)c2cc1OC
[out] inactive
